Data origin, for the record: the supplement of paper PMC11208160

recombinant UMI read abundance (log10) by entry:
# assay_remarks: recombinant UMI read abundance after kanamycin selection (control-corrected) (log10(CPM+1)); higher = more efficient recombination; extreme values may be limits of the assay; sequences stand for … in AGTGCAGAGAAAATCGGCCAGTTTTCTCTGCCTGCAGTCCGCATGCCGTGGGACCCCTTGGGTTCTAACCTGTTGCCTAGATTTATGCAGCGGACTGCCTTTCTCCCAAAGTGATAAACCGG…AGGTTGGTTTCACT; site = the 11-nt donor;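 further: IS621 bridge recombinase in Escherichia coli cells against a fixed T5 target plasmid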

sequence_text: AAGAACACATGGACCGGTTTTCCCGGTAATCCGTATTTGAT (site AAGAACACTAT)
recombinant UMI read abundance (log10): 2.22

sequence_text: TCGATTACATGGACCGGTTTTCCCGGTAATCCGTATTTGGA (site TCGATTACTTC)
recombinant UMI read abundance (log10): 0.277

sequence_text: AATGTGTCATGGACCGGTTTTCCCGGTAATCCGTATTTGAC (site AATGTTTCTGT)
recombinant UMI read abundance (log10): 0

sequence_text: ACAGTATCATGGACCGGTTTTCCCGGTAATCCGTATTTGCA (site ACAGTGCCTTG)
recombinant UMI read abundance (log10): 0.121

sequence_text: CTACCTACATGGACCGGTTTTCCCGGTAATCCGTATTTGAG (site CTACCTACTCT)
recombinant UMI read abundance (log10): 1.04

sequence_text: ACATCTACATGGACCGGTTTTCCCGGTAATCCGTATTTGTT (site ACATCTACTGA)
recombinant UMI read abundance (log10): 0

sequence_text: ACTTATGCATGGACCGGTTTTCCCGGTAATCCGTATTTGGA (site AGTTATGCTTC)
recombinant UMI read abundance (log10): 0.698

sequence_text: ACACAACCATGGACCGGTTTTCCCGGTAATCCGTATTTGAC (site ACACATCCTGT)
recombinant UMI read abundance (log10): 0

sequence_text: AGGACTGCATGGACCGGTTTTCCCGGTAATCCGTATTTGAC (site AGGACTCCTGT)
recombinant UMI read abundance (log10): 0.533
